- testedOn: human recombinant CBL-b (human Biotin CBL-b recombinant protein a.a. 39-426) (Homo sapiens, UniProt Q13191)
- Construct: human Biotin CBL-b recombinant protein a.a; 39-426; Biotin (biotinylated)
- Sequence (Q13191 39-426): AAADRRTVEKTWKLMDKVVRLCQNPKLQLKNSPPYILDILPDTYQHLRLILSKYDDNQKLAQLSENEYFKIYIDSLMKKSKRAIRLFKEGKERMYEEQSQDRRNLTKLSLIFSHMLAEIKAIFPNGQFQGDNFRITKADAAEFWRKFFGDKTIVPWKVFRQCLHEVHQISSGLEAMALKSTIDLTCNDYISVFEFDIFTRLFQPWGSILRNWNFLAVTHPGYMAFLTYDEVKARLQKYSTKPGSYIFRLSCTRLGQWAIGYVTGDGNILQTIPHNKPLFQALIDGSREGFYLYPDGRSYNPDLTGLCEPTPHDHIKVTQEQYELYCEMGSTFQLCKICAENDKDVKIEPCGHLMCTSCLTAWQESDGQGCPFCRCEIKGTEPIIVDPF
- protocolNotes: Biochemical assay for CBL-b inhibition (ligand displacement TR-FRET)
- conditions: 50 nM CBL-b, 0.3 μM Bodipy FL-Probe, read-out: IC50 (CBL-b inhibition, group)
pIC50: −log10 of the molar value.
pIC50 by entry:

CC(C)NCC(O)c1cc(N2Cc3ccc(C4(Cc5nncn5C)COC4)cc3C2=O)cc(C(F)(F)F)c1 (stereo not shown) :: 5.30 to 6.52
Cn1cnnc1CC1(c2ccc3c(c2)C(=O)N(c2cc(CNCC4(C(F)(F)F)CC4)cc(Cl)n2)C3)COC1 :: 6.52 to 7.10
Cn1cnnc1CC1(c2ccc3c(c2)C(=O)N(c2cc(CN4CC5(COC5)C4)cc(C(F)(F)F)n2)C3)COC1 :: 5.30 to 6.52

stdin: Looking for the measured pIC50 of Cc1cc(CNC(C)(C)CCO)cc(N2Cc3ccc(-c4ccc(Cl)cc4-c4nncn4C)cc3C2=O)n1 , can you help?
stdout: 6.52 to 7.10

stdin: Looking for the measured pIC50 of C[C@@H]1CN(Cc2cc(Cl)nc(N3Cc4ccc(C5(Cc6nncn6C)COC5)cc4C3=O)c2)C[C@H](C)O1 , can you help?
stdout: 5.30 to 6.52

stdin: Looking for the measured pIC50 of Cc1cc(CNCCC(F)(F)F)cc(N2Cc3ccc(-c4ccc(F)cc4-c4nncn4C)cc3C2=O)n1 , can you help?
stdout: > 7.10

stdin: Looking for the measured pIC50 of CN1CCC/C(=C/c2cc(Cl)nc(N3Cc4ccc(C5(Cc6nncn6C)COC5)cc4C3=O)c2)C1 , can you help?
stdout: 6.52 to 7.10

* * *

- testedOn: human recombinant CBL-b (human Biotin CBL-b recombinant protein a.a. 39-426) (Homo sapiens, UniProt Q13191)
- Construct: human Biotin CBL-b recombinant protein a.a; 39-426; Biotin (biotinylated)
- protocolNotes: Biochemical assay for CBL-b inhibition (ligand displacement TR-FRET)
- conditions: 50 nM CBL-b, 0.3 μM Bodipy FL-Probe, read-out: IC50 (CBL-b inhibition, group)
pIC50: −log10 of the molar value.
pIC50 by entry:

Cc1cc(C(C)NCC2CC2)cc(N2Cc3ccc(-c4ccc(Cl)cc4-c4nncn4C)cc3C2=O)n1 (centres unmarked) :: > 7.10
Cc1cc(CNCC(F)(F)F)cc(N2Cc3ccc(C4(Cc5nncn5C)COC4)cc3C2=O)c1 :: 5.30 to 6.52

stdin: Looking for the measured pIC50 of Cn1cnnc1-c1cc(Cl)ccc1-c1ccc2c(c1)C(=O)N(c1cc(CNC3CCCC3)cc(Cl)n1)C2 , can you help?
stdout: 6.52 to 7.10

stdin: Looking for the measured pIC50 of C[C@@H](Cc1nncn1C)c1ccc2c(c1)C(=O)N(c1cc(CNCC3CC3)cc(Cl)n1)C2 (single isomer, unassigned) , can you help?
stdout: > 7.10

* * *

- testedOn: human recombinant CBL-b (human Biotin CBL-b recombinant protein a.a. 39-426) (Homo sapiens, UniProt Q13191)
- Construct: human Biotin CBL-b recombinant protein a.a; 39-426; Biotin (biotinylated)
- protocolNotes: Biochemical assay for CBL-b inhibition (ligand displacement TR-FRET)
- conditions: 50 nM CBL-b, 0.3 μM Bodipy FL-Probe, read-out: IC50 (CBL-b inhibition, group)
recordedEndpoint: IC50

Worked cases, IC50 given:
Cc1cc(CN[C@@H](CO)C(C)C)cc(N2Cc3ccc(-c4ccc(F)cc4-c4nncn4C)cc3C2=O)n1 :: < 80 nM
Cn1cnnc1CC1(c2ccc3c(c2)C(=O)N(c2cc(CN4CCC5(CCCO5)C4)cc(C(F)(F)F)n2)C3)COC1 (stereo not shown) :: 300 to 5000 nM

stdin: Looking for the measured IC50 of CC(NCC1CC1(F)F)c1cc(Cl)nc(N2Cc3ccc(C4(Cc5nncn5C)COC4)cc3C2=O)c1 (single isomer, unassigned) [Compound 206] , can you help?
stdout: < 80 nM

stdin: Looking for the measured IC50 of C[C@H]1CCCN(Cc2cc(N3Cc4ccc(C5(Cc6nncn6C)COC5)cc4C3=O)nc(C(F)(F)F)c2)C1 , can you help?
stdout: < 80 nM

* * *

pIC50 by entry:
- testedOn: human recombinant CBL-b (human Biotin CBL-b recombinant protein a.a. 39-426) (Homo sapiens, UniProt Q13191)
- Construct: human Biotin CBL-b recombinant protein a.a; 39-426; Biotin (biotinylated)
- protocolNotes: Biochemical assay for CBL-b inhibition (ligand displacement TR-FRET)
- conditions: 50 nM CBL-b, 0.3 μM Bodipy FL-Probe, read-out: IC50 (CBL-b inhibition, group)
pIC50: −log10 of the molar value.

Worked cases, pIC50 given:
C[C@@H]1CN(Cc2cc(N3Cc4ccc(C5(Cc6nncn6C)COC5)cc4C3=O)nc(C(F)(F)F)c2)CCN1 :: 5.30 to 6.52
Cc1cc(CN)cc(N2Cc3ccc(-c4ccc(F)cc4-c4nncn4C)cc3C2=O)n1 :: 6.52 to 7.10
Cn1ccc(CNCc2cc(Cl)nc(N3Cc4ccc(C5(Cc6nncn6C)COC5)cc4C3=O)c2)n1 :: 5.30 to 6.52

stdin: Looking for the measured pIC50 of Cn1cnnc1CC1(c2ccc3c(c2)C(=O)N(c2cc(CN4CCC[C@H](C(F)(F)F)C4)cc(C(F)(F)F)n2)C3)COC1 , can you help?
stdout: > 7.10

stdin: Looking for the measured pIC50 of Cc1cc(CNCC2CC2)cc(N2Cc3ccc(-c4ccc(F)cc4-c4ncco4)cc3C2=O)n1 , can you help?
stdout: 6.52 to 7.10

stdin: Looking for the measured pIC50 of Cn1cnnc1CC1(c2ccc3c(c2)C(=O)N(c2cc(CNC[C@H]4CCCO4)cc(Cl)n2)C3)COC1 (single isomer, unassigned) , can you help?
stdout: > 7.10

stdin: Looking for the measured pIC50 of Cn1cnnc1-c1cc(Cl)ccc1-c1ccc2c(c1)C(=O)N(c1cc(Cl)cc(CNCC3CC3)c1)C2 , can you help?
stdout: > 7.10

* * *

pIC50 by entry:
- testedOn: human recombinant CBL-b (human Biotin CBL-b recombinant protein a.a. 39-426) (Homo sapiens, UniProt Q13191)
- Construct: human Biotin CBL-b recombinant protein a.a; 39-426; Biotin (biotinylated)
- protocolNotes: Biochemical assay for CBL-b inhibition (ligand displacement TR-FRET)
- conditions: 50 nM CBL-b, 0.3 μM Bodipy FL-Probe, read-out: IC50 (CBL-b inhibition, group)
pIC50: −log10 of the molar value.

Worked cases, pIC50 given:
C[C@H]1CCCN(Cc2cc(Cl)nc(N3Cc4ccc([C@@H](C)Cc5nncn5C)cc4C3=O)c2)C1 (single isomer, unassigned) :: > 7.10
Cn1cnnc1CC1(c2ccc3c(c2)C(=O)N(c2cc(CNCC4CCCC4)cc(Cl)n2)C3)COC1 :: > 7.10
Cn1cnnc1CC1(c2ccc3c(c2)C(=O)N(c2cc(CNCC4COC4)cc(Cl)n2)C3)COC1 :: 6.52 to 7.10
Cn1cnnc1CC1(c2ccc3c(c2)C(=O)N(c2cc(CN4CCC(C(F)(F)F)CC4)cc(C(F)(F)F)n2)C3)COC1 :: 5.30 to 6.52
Cc1cc(NCC2CCCN2)cc(N2Cc3ccc(C4(Cc5nncn5C)COC4)cc3C2=O)n1 (stereo not shown) :: 5.30 to 6.52

stdin: Looking for the measured pIC50 of Cn1cnnc1CC1(c2ccc3c(c2)C(=O)N(c2cc(CN4CC5CCCC5C4)cc(C(F)(F)F)n2)C3)COC1 (stereo not shown) , can you help?
stdout: 6.52 to 7.10

stdin: Looking for the measured pIC50 of C[C@@H]1CN(Cc2cc(N3Cc4ccc(C5(Cc6nncn6C)COC5)cc4C3=O)nc(C(F)(F)F)c2)CCN1C , can you help?
stdout: 5.30 to 6.52

* * *

- testedOn: human recombinant CBL-b (human Biotin CBL-b recombinant protein a.a. 39-426) (Homo sapiens)
- Construct: human Biotin CBL-b recombinant protein a.a; 39-426; Biotin (biotinylated); made in house
- protocolNotes: Biochemical assay for CBL-b inhibition (ligand displacement TR-FRET)
- Format: binding
- conditions: 50 nM CBL-b, 0.3 μM Bodipy FL-Probe, read-out: IC50 (CBL-b inhibition, group)
pIC50: −log10 of the molar value.
pIC50 by entry:

Worked cases, pIC50 given:
Cn1cnnc1-c1cc(F)ccc1-c1ccc2c(c1)C(=O)N(c1cc(CNCC3CC3)cc(C(F)(F)F)n1)C2 [Compound 265] :: > 7.10
Cn1cnnc1CC1(c2ccc3c(c2)C(=O)N(c2cc(CN4CCC[C@H](O)C4)cc(C(F)(F)F)n2)C3)COC1 [Compound 30] :: 5.30 to 6.52
Cc1cc(CNCC(C)(C)O)cc(N2Cc3ccc(-c4ccc(F)cc4-c4nncn4C)cc3C2=O)n1 [Compound 309] :: > 7.10
CC(NCC1CC1)c1cc(Cl)nc(N2Cc3ccc(C4(Cc5nncn5C)CC(C#N)C4)cc3C2=O)c1 (stereo not shown) [Compound 225] :: > 7.10
Cc1cc(CN2CCC[C@H](C)C2)cc(N2Cc3ccc(C4(Cc5nncn5C)COC4)cc3C2=O)c1 [Compound 4] :: > 7.10

stdin: Looking for the measured pIC50 of Cn1cnnc1CC1(c2ccc3c(c2)C(=O)N(c2cc(CN4CCC(O)CC4)cc(C(F)(F)F)n2)C3)COC1 [Compound 43] , can you help?
stdout: 5.30 to 6.52

stdin: Looking for the measured pIC50 of CC(Cc1nncn1C)Nc1ccc2c(c1)C(=O)N(c1cc(CN3CCC[C@H](C)C3)cc(Cl)n1)C2 (stereo partly shown) [Compound 190] , can you help?
stdout: > 7.10
